- experiment_description: molar heat capacity at constant pressure
- condition: 279 K; 101.33 kPa; Liquid; DSC
Consider the following molecules; for each one, report its molar heat capacity at constant pressure.
Answers are plain numbers, in J/K/mol.

Solved cases below.
CCCCCCOC(=O)CCCCC [hexanoic acid, hexyl ester]    386.6
CCCCCCCCCC(=O)OCC [ethyl decanoate]    376.62
CCCCCCCC(=O)OCCCC [butyl octanoate]    388.26
CCCCCCCCOC(=O)CCC [octyl butanoate]    374.13

Then there is this molecule:
For this molecule ( CCCCCCCCCCC(=O)OC [methyl undecanoate] ), measured molar heat capacity at constant pressure is 380.78
